# Test system: K4 kissing-loop RNA reporter
# assay_overview: apparent KD of K4 kissing-loop reporter; higher = weaker reporter binding
# measurement_context: Eterna round: R107; input ligand: theophylline 20 uM
Please provide measured apparent KD of K4 kissing-loop reporter for the entries that follow.
Numbers only, in µM.

Known apparent KD of K4 kissing-loop reporter results, listed for orientation:
| biosequence | test_target | unit_abbrev | apparent KD of K4 kissing-loop reporter |
| --- | --- | --- | --- |
| UAAAUUAAGCUUUGCUGAUUAAUAAGCGAUACCAGCAAAUAAUGAUGCCCUUGGCAGCGUUAUAAUCUAGUGAUGUUAGAUUAGU [Not much to say about this one] | K4 kissing-loop RNA reporter | µM | 0.103 |
| UAUCAGAUUACUGAUACCAGUCUAAAGACAGUGAUGUUGUCUGAUCGACCACGAUCAAAGGACCCUUGGCAGCAGUGUACUAUUC [#29 K4 Theophylline B Same State] | K4 kissing-loop RNA reporter | µM | 0.188 |
| GUAUCGCUAGGAGGAUAUUUCAAUCCGCCUAUAAUAGGUGGUACGGAGUGAUGUUCCGAUUUACGGAAAGAAGGCCUAGUGAUAC [FMN B 16] | K4 kissing-loop RNA reporter | µM | 0.283 |

Please give apparent KD of K4 kissing-loop reporter for each item listed below.
1. CGGAUGUAGUGAUGUUAUAUUAGAUGUAGACGAGGACCGGUACGGCCGCCACUCGAAACGGCUGCUAGCGCGUUGCGAGGUGUGC [ExTryptoA.Ck]
2. UUAAUAAUUCAAGGAUAUGUUUUCUAUUUCGAGUGAUGUUCGGAAUUAAUAAAUUUAAAAGAUUAUACAGAAGGUGAUGGAUAGU [Cynwulf-mod#4]

1. 0.419
2. 0.129

Annotate the sequence UGCAGUGAUGUUGCUAUUUUUCUUGAUUAACGAGGACCGGUACGGCCGCCACUCGAUUUCUCUCUAAUCCAGUAUGUUGUUUAGU [JR_ExcTryptoA_Sub001] with its measured apparent KD of K4 kissing-loop reporter.
0.14

* * *

# Test system: MS2 coat protein
# assay_overview: apparent KD of MS2 coat protein; designed switch direction (-1 OFF switch, 1 ON switch): -1; higher = weaker reporter binding
# measurement_context: Eterna round: R95; input ligand: FMN 200 uM
attribute_measured: apparent KD of MS2 coat protein (nM)
Give bare numbers, in nM.

| biosequence | test_target | unit_abbrev | apparent KD of MS2 coat protein |
| --- | --- | --- | --- |
| UGUACGAUGCGUGCUGACAUGCGUCGUGCAGCAGGUGAUACAUGAGGAUCACCCAUGUCCUCAUUUGCUCGUCAUGU [Mat - Sensor v3 - Turn-off var 2 - D25] (puzzle: Sensor v3, turn-off variant 2) | MS2 coat protein | nM | 73.4 |
| AAGUACCGUCACGAUAGUGAUGGUACAACAAGCAUGUAAACAUGAGGAUCACCCAUGUCCUCAUAUGCUCGUCUUAU [Sensor 3 - 64] (puzzle: Sensor v3, turn-off variant 2) | MS2 coat protein | nM | 375 |

Consider the record given below.
Annotate the sequence CAUACUGAAGUUAGGAUAUUCGGACGUAUACGGAUGGAGAAGGGACAUGAGGAUCACCCAUGUAGAUAGUAAAG [EX-4 Malc #12] (puzzle: Brourd's mod of Exclusion 4) with its measured apparent KD of MS2 coat protein.
22.7

* * *

# System: K4 kissing-loop RNA reporter
# assay_overview: apparent KD of K4 kissing-loop reporter; higher = weaker reporter binding
# measurement_context: Eterna round: R107; input ligand: arginine 13.2 mM
# if value of apparent KD of K4 kissing-loop reporter reaches 0.2 µM, tag 1.0; if it stays below, tag 0.0

Worked examples follow.
| biosequence | category |
| --- | --- |
| CGCUCGAAAAUUAAGUGAGUGAUGUUCACUCGAGGACCGGUACGGCCGCCACUCGUCUUACGUUGAGACACUGCUCGUACUCAUA [theeternabot_exclusion_KL_Trp_A_38] | 1.0 |
| UGGGAUGUUAAAGGAUAUAGCAAGUGAUAUAAGAAAGUGAGUGAUGUUGAUGUAGGUGAUGAUAUGUUAGAAGGUUAACAAAACG [abcdefg] | 1.0 |
| AGAUGUCUCUGGGAUACCAGUCGGAGUCUCAGGGCUCGGAGUGAUGUUCUGGGAUGUUUCGGCCCUUGGCAGCCCUGGGACUCCC [#2 Exclusion - Theophylline B Attempt #27 (HarryS)] | 1.0 |
| GAAAGAAAGUAUGAUACCAGACACCCGAGUGAUGUUCGGAGCAGUGUGAUGUUCUUUUAAGUCCCUUGGCAGCAUAAAAGAAAAG [whbob_SS_Theo_B_sa84] | 0.0 |
| AGAGAUAUAUGAGGAUAUGGGUUAGUUAAUGAGUUAGUUUUAGUGUUGUUUGGUUAGUGAUGUUAUUUAGAAGGCGUGAGUGAUG [cqqbmullin] | 0.0 |

// switching to the query sequence
Confirm if apparent KD of K4 kissing-loop reporter reported for the sequence AAUUUAGUGACGGCCGCCACUAUGGUGAUUUAUUUGUUUGAGUGAUGUUUUGAUGUUUGAUUUUGUAGGACCGGGUUAGGUGAUG [aaacmullin] is 0.2 µM or above.
1.0

* * *

# Test system: K4 kissing-loop RNA reporter;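 note: bound reporter read as fluorescence of individual clusters on recovered sequencing chips by microscopy, with normalized cluster intensities fitted with a binding model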
# assay_overview: apparent KD of K4 kissing-loop reporter; higher = weaker reporter binding
# measurement_context: Eterna round: R107; input ligand: tryptophan 2.4 mM
# if value of apparent KD of K4 kissing-loop reporter reaches 200 nM, tag label 1; if it stays below, tag label 0

| biosequence | category |
| --- | --- |
| GUAUCGCUAGGAGGAUAUUUCAAUUCGCCUAUAAUAGGUGAUACGGAGUGAUGUUCCGAUUUACGGAAAGAAGGCCUAGUGAUAC [FMN B 10] | label 1 |
| UGUGUUUACCUGACUCAGUGAUGUUGAGAAGGAGCGUGAGAAAUCACAGGUAGGUCGCUCAACCUAAAUUCAGGUGAGCACUAAA | label 1 |
| GGAUUCACCAGUGAUGUUGGAGAAAACUCGAAGGAUAUGACGAAAGUCAGAAGGUCGUAGACUGGACAAAGUCCGGUCGGAUCCA [KL-SSFMN-A22] | label 1 |

Confirm if apparent KD of K4 kissing-loop reporter reported for the sequence GGAGGGAUCUCGGCCGCCACUCAUAAGAAAUGAACCUAAGAAAUAUAGUGAUGUUAUAUAAAGAAGAGGACCGGGAGAAAGGAGG [ExTryptoB.A] is 200 nM or above.
label 0

Confirm if apparent KD of K4 kissing-loop reporter reported for the sequence AAGGUUGUGCAUGGGAGUGAUGUUCCCACGCAGGAUAUCGCUCACGCGAGAAGGGCGAGCACAACCGCUCAAGAAACUUGAGCAA [Omei KL FMN A SS C v2] is 200 nM or above.
label 0

Confirm if apparent KD of K4 kissing-loop reporter reported for the sequence UGUAAUGAGUGAUGUUCAUGUAGUAAGGAUACCAGUAAUUCAAAAUGCCCUUGGCAGCUUAGUUCUAUCUAUAGUUGGGUAGUGG [Theophilline A V4 (+5U)] is 200 nM or above.
label 0

* * *

# Tested on: MS2 coat protein
# assay_overview: apparent KD of MS2 coat protein; designed switch direction (-1 OFF switch, 1 ON switch): -1; higher = weaker reporter binding
# measurement_context: input ligand: none
Field: class. Source value: apparent KD of MS2 coat protein. Ranges: lo = under 50 nM, med = from 50 nM up to 80 nM, hi = 80 nM and over

Where would CAAUAUUAUCGAGGAUAUCCUAUUGUAUUUCUGGGAGAAGGCGGACUCAACAUGAGGAUCACCCAUGUAAGACGGGUACUAGAU [Ex NG1 #20] (Eterna round: R96, puzzle: Exclusion NG 1) land among the classes by reported apparent KD of MS2 coat protein?
hi

* * *

# Tested on: MS2 coat protein
# assay_overview: apparent KD of MS2 coat protein; designed switch direction (-1 OFF switch, 1 ON switch): -1; higher = weaker reporter binding
# measurement_context: input ligand: FMN 200 uM
attribute_measured: apparent KD of MS2 coat protein (nM)
One number for each entry, in nM.

Known apparent KD of MS2 coat protein results, listed for orientation:
| biosequence | unit_abbrev | apparent KD of MS2 coat protein |
| --- | --- | --- |
| GUUUCACAUGAGGAUCACCCAUGUGAGGAUAUGGACUUUUUAGUAAUAAUUGUUGGGUUCAGAAGGCGCGUGAU [JR_Exc1_Sub005] (Eterna round: R97, puzzle: Exclusion 1) | nM | 53.1 |
| ACAAGCUUUUGCUCGUCUUACAUGAGGAUCACCCAUGUCGGAUGAUCGCUUGCGUCCGGCGUCUGAGCCGUGACGGU [Sensor, turn off variant MOD of sellena. cleaned up dot.] (Eterna round: R97, puzzle: Sensor, turn-off variant 1) | nM | 15.3 |
| GGGUGCGAGCUAAGAUCCUACAUGAGGAUCACCCAUGUGGUCCGGUGACGUGAGUCACCGGACUUAGCUCGUCUUGU [salish99_S_TOV1_R5_005] (Eterna round: R97, puzzle: Sensor, turn-off variant 1) | nM | 26.3 |

Consider the record given below.
Annotate the sequence ACAUGAGGAUCACCCAUGUUUGGCUGGUUUUCUCCGGCUGUCGAGGAUAUAGUCCGGUAUCCGCGCUAGAAGGUGAGGGUUGGC [Aenatbe mod 4] (Eterna round: R96, puzzle: Exclusion NG 3) with its measured apparent KD of MS2 coat protein.
22.5
